test: Venetoclax plasma pharmacokinetics in wild-type, CYP3A(−/−) and OATP1B2(−/−) mice; type: in vivo; conditions: female, DBA, mouse, plasma, po, 10 mg/kg, wild-type DBA, n=10, venetoclax 10 mg/kg PO, no co-treatment; mean (SE)

{"compound": "CC1(C)CCC(CN2CCN(c3ccc(C(=O)NS(=O)(=O)c4ccc(NCC5CCOCC5)c([N+](=O)[O-])c4)c(Oc4cnc5[nH]ccc5c4)c3)CC2)=C(c2ccc(Cl)cc2)C1 [Venetoclax]", "Cmax": "523 ng/mL"}

====

experiment: Venetoclax plasma pharmacokinetics in wild-type, CYP3A(−/−) and OATP1B2(−/−) mice; type: in vivo; details: female, FVB.129P2 CYP3A(-/-), mouse, plasma, po, 10 mg/kg, Table S1: CYP3A(-/-), female, N=3, venetoclax 10 mg/kg PO, no co-treatment; mean (SE)
property: Cmax (ng/mL)

{"molecule": "CC1(C)CCC(CN2CCN(c3ccc(C(=O)NS(=O)(=O)c4ccc(NCC5CCOCC5)c([N+](=O)[O-])c4)c(Oc4cnc5[nH]ccc5c4)c3)CC2)=C(c2ccc(Cl)cc2)C1 [Venetoclax]", "recorded.measurement": 3400}

====

test: Venetoclax plasma pharmacokinetics in wild-type, CYP3A(−/−) and OATP1B2(−/−) mice; format: in vivo; details: female, CYP3A(−/−) knockout (FVB.129P2 background), mouse, plasma, po, 10 mg/kg, CYP3A(−/−), female, venetoclax 10 mg/kg PO, co-treatment None (control of micafungin experiment); mean (SE); read-out: Venetoclax AUC(0–8h)

{"compound": "CC1(C)CCC(CN2CCN(c3ccc(C(=O)NS(=O)(=O)c4ccc(NCC5CCOCC5)c([N+](=O)[O-])c4)c(Oc4cnc5[nH]ccc5c4)c3)CC2)=C(c2ccc(Cl)cc2)C1", "readout.units": "ng·h/mL", "AUC(0-t)": 10600}

====

Each entry below lists one item and its recorded pIC50 value.
target: OATP1B1 (Homo sapiens); test: Inhibition of OATP1B1-mediated [3H]EβG uptake in HEK293 cells; details: OATP1B1 IC50, HEK293 cells, 0.2 µM EβG, 15 min pre-incubation + 15 min co-incubation
Sequence (Q9Y6L6 whole entry): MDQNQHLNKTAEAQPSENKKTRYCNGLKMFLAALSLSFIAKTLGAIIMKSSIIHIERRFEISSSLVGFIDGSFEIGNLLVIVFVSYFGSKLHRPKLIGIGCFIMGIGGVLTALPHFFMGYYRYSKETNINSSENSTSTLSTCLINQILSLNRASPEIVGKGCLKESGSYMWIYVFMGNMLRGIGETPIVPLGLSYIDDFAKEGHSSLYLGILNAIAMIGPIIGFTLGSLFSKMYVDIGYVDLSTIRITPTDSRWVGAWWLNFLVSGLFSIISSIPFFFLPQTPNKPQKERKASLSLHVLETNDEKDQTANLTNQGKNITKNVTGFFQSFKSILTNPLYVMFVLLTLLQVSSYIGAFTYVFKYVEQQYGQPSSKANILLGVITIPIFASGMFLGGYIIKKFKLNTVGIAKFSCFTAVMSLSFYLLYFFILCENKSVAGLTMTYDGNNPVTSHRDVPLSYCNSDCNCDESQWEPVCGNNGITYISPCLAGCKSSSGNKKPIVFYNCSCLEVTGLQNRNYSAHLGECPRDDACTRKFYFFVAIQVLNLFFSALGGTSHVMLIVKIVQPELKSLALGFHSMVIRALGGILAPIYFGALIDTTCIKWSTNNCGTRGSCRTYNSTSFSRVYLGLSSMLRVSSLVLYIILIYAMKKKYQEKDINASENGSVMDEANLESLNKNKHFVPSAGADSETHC
pIC50: −log10 of the molar value. *1 amine or outer side, *2 acyl side, *3 side chain or, on linkers, in order; H or OH if unused. Where a SMILES comes first, the peptide text is derived from it. Bridges are numbered along the chain shown (N, C = ends). [ ]: non-standard residue; d: D form. The star is where a group is joined. hTyr(3S-OH,4S-OH,3'-OSO3H) = N[C@H](C(=O)O)[C@H](O)[C@@H](O)c1ccc(O)c(OS(=O)(=O)O)c1; pTerphenylCO(4''-OnC5H11) = CCCCCOc1ccc(-c2ccc(-c3ccc(C(=O)*)cc3)cc2)cc1; Orn(4R-OH,5R-OH) = O=C([C@H](C[C@@H](O)[C@@H](O)N[*:3])N[*:1])[*:2]; hTyr(3S-OH,4S-OH) = N[C@H](C(=O)O)[C@H](O)[C@@H](O)c1ccc(O)cc1; Pro(3S-OH,4S-Me) = C[C@H]1CN[C@H](C(=O)O)[C@H]1O; X1 = CCCCCOc1ccc(-c2cc(-c3ccc(C(=O)*)cc3)no2)cc1; Gln(3R-OH) = NC(=O)C[C@@H](O)[C@H](N)C(=O)O; Hyp = O=C(O)[C@@H]1C[C@@H](O)CN1

{"compound": "CCCCCOc1ccc(-c2ccc(-c3ccc(C(=O)N[C@H]4C[C@@H](O)[C@@H](O)NC(=O)[C@@H]5[C@@H](O)[C@@H](C)CN5C(=O)[C@H]([C@@H](C)O)NC(=O)[C@H]([C@H](O)[C@@H](O)c5ccc(O)cc5)NC(=O)[C@@H]5C[C@@H](O)CN5C(=O)[C@H]([C@@H](C)O)NC4=O)cc3)cc2)cc1 [Anidulafungin] ({pTerphenylCO(4''-OnC5H11)}-[Orn(4R-OH,5R-OH)]T[Hyp][hTyr(3S-OH,4S-OH)]T[Pro(3S-OH,4S-Me)]; lactam 1-C)", "sign": "=", "pIC50": 4.38}
{"compound": "CCCCCOc1ccc(-c2cc(-c3ccc(C(=O)N[C@H]4C[C@@H](O)[C@@H](O)NC(=O)[C@@H]5[C@@H](O)[C@@H](C)CN5C(=O)[C@H]([C@H](O)CC(N)=O)NC(=O)[C@H]([C@H](O)[C@@H](O)c5ccc(O)c(OS(=O)(=O)O)c5)NC(=O)[C@@H]5C[C@@H](O)CN5C(=O)[C@H]([C@@H](C)O)NC4=O)cc3)no2)cc1 [Micafungin] (X1-[Orn(4R-OH,5R-OH)]T[Hyp][hTyr(3S-OH,4S-OH,3'-OSO3H)][Gln(3R-OH)][Pro(3S-OH,4S-Me)]; lactam 1-C)", "sign": "=", "pIC50": 5.68}
{"compound": "CC[C@@H]([C@H](C)O)n1ncn(-c2ccc(N3CCN(c4ccc(OC[C@@H]5CO[C@@](Cn6cncn6)(c6ccc(F)cc6F)C5)cc4)CC3)cc2)c1=O", "sign": "=", "pIC50": 5.72}
{"compound": "CC(C)c1nc(CN(C)C(=O)N[C@@H](CCN2CCOCC2)C(=O)N[C@H](CC[C@H](Cc2ccccc2)NC(=O)OCc2cncs2)Cc2ccccc2)cs1 [Cobicistat]", "sign": "=", "pIC50": 6.51}
{"compound": "CC(=O)N1CCN(c2ccc(OCC3COC(Cn4ccnc4)(c4ccc(Cl)cc4Cl)O3)cc2)CC1 (stereo not drawn)", "sign": "=", "pIC50": 5.82}
{"compound": "CC[C@H](C)C[C@H](C)CCCCCCCCC(=O)N[C@H]1C[C@@H](O)[C@@H](NCCN)NC(=O)[C@@H]2[C@@H](O)CCN2C(=O)[C@H]([C@H](O)CCN)NC(=O)[C@H]([C@H](O)[C@@H](O)c2ccc(O)cc2)NC(=O)[C@@H]2C[C@@H](O)CN2C(=O)[C@H]([C@@H](C)O)NC1=O", "sign": "=", "pIC50": 5.04}
{"compound": "C[C@@H](c1nc(-c2ccc(C#N)cc2)cs1)[C@](O)(Cn1cncn1)c1cc(F)ccc1F", "sign": "=", "pIC50": 5.60}
{"compound": "CO[C@H]1/C=C/O[C@@]2(C)Oc3c(C)c(O)c4c(O)c(c(/C=N/N5CCN(C)CC5)c(O)c4c3C2=O)NC(=O)/C(C)=C\\C=C\\[C@H](C)[C@H](O)[C@@H](C)[C@@H](O)[C@@H](C)[C@H](OC(C)=O)[C@@H]1C", "sign": ">", "pIC50": 5.52}
{"compound": "CCC(C)n1ncn(-c2ccc(N3CCN(c4ccc(OCC5COC(Cn6cncn6)(c6ccc(Cl)cc6Cl)O5)cc4)CC3)cc2)c1=O (stereo not drawn)", "sign": "=", "pIC50": 4.43}
{"compound": "C[C@@H](c1ncncc1F)[C@](O)(Cn1cncn1)c1ccc(F)cc1F", "sign": "=", "pIC50": 4.10}
{"compound": "OC(Cn1cncn1)(Cn1cncn1)c1ccc(F)cc1F", "sign": "=", "pIC50": 2.39}
{"compound": "CC(O)C(C)n1ncn(-c2ccc(N3CCN(c4ccc(OCC5COC(Cn6cncn6)(c6ccc(Cl)cc6Cl)O5)cc4)CC3)cc2)c1=O (stereo not drawn) [Hydroxy-ITZ, hydroxy-itraconazole]", "sign": "=", "pIC50": 5.46}
